Below, each entry is listed alongside its reported protein stability index.
procedureDetails: protein stability index of a GFP-peptide fusion (GPS, HEK-293T) (PSI 1-6); higher = more stable;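 note: 24-mer peptide tiles fused after GFP, lentivirally expressed, FACS-sorted into six equal bins by GFP/DsRed ratio, decoded by Illumina sequencing, PSI is the read-weighted mean bin number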
conditionDescription: treatment: MLN4924 1 uM, 8 h; c terminus: a fixed tail appended
Answer with a bare number; do not write a unit.

Some solved cases for reference:
> print(dat)
                        sequencecode              assaymetric  readoutnumber
1  TQRLWDFTQSGPIVSRATGRCLEV [GALNT9]  protein stability index           3.02
2   PALSQLVNLYLGRSHFLWKEPATM [TCF25]  protein stability index           3.02

Let us examine a further case.
Problem: Please list protein stability index recorded for the sequence KLQLQLNETKSQAFVSNSPKLFCP [PLD5]
Solution: 2.95

###

Below, each entry is listed alongside its reported protein stability index.
procedureDetails: protein stability index of a GFP-peptide fusion (GPS, HEK-293T) (PSI 1-6); higher = more stable
conditionDescription: treatment: DMSO; c terminus: a fixed tail appended

Some solved cases for reference:
> print(dat)
                          sequencecode  result
1     EKALQVLVDQSKKANSPLKGHERT [VPS39]    4.06
2  NESWIKSHFSRLSEEKLALDNNAS [C10orf62]    4.11
3     TMARALGRFKLSIPHTHLLATLDP [WDR88]    2.19

Problem: Please list protein stability index recorded for the sequence ETEDVDYGETDFHKQDGKAGLFSQ [TMEM40]
Solution: 5.3

Problem: Please list protein stability index recorded for the sequence GGYETFYSEYPECCVDVKPISQEK [DUSP5]
Solution: 4.25

Problem: Please list protein stability index recorded for the sequence YFFCENDAEFLCVFCREGPTHQAH [TRIM15]
Solution: 2.26

###

procedureDetails: protein stability index of a GFP-peptide fusion (GPS, HEK-293T) (PSI 1-6); higher = more stable
conditionDescription: treatment: DMSO; c terminus: a fixed tail appended
assayMetric: protein stability index
Answer with a bare number; do not write a unit.

> print(dat)
                         sequencecode  readoutnumber
1     VQELVLEDLQDGDVRMGGSFRGAF [NET1]           3.38
2  AFMNQEITKAFHVRKANRIKECLS [RHOBTB1]           2.41
3    ARLRHQELFRLRGIKAQVALRLAE [NOP53]           2.22
4     LMDIVPADDHRYKFADNKWSVTGK [TBX5]           3.63
5    SGFVGSGGWFCEGSFNGSEKETMQ [KRT36]           3.87

Problem: Please list protein stability index recorded for the sequence ASSRSQQSSKRSSRSVEDDKEGHL [CLK3]
Solution: 5.44

Problem: Please list protein stability index recorded for the sequence LQGVPERLLGTAGTEEKKKLIRDF [VTI1B]
Solution: 4.25

Problem: Please list protein stability index recorded for the sequence VHVISLHIWELSSIKNSLKVAAIS [PTGFR]
Solution: 2.86

Problem: Please list protein stability index recorded for the sequence EFAEMVEREEEDDALDSEGRDSEG [KCNG1]
Solution: 5.68

Problem: Please list protein stability index recorded for the sequence RGGGGGGGGGAPRGRYGPPSRRSE [SRSF1]
Solution: 5.61

Problem: Please list protein stability index recorded for the sequence HFHRTLKEACDQHGPDLYPKFKKW [CPOX]
Solution: 2.49

Problem: Please list protein stability index recorded for the sequence ILSGHEHAVSTCHFCVDDTKLLSG [WDR88]
Solution: 2.71

Problem: Please list protein stability index recorded for the sequence VPYCERDYEKMFGTKCHGCDFKID [PDLIM7]
Solution: 3.2

Problem: Please list protein stability index recorded for the sequence KDQQTFARSVGLKWRKVGRSLQRG [TRADD]
Solution: 3.27

Problem: Please list protein stability index recorded for the sequence QLVRYSADGLLQLGPLGSTAFLPD [GALNT9]
Solution: 2.33

###

procedureDetails: protein stability index of a GFP-peptide fusion (GPS, HEK-293T) (PSI 1-6); higher = more stable
conditionDescription: treatment: MLN4924 1 uM, 8 h; c terminus: a fixed tail appended
Returns one of Condition met or Condition not met; Condition met when protein stability index is >= 3.

> print(dat)
                       sequencecode            cat
1  VQGGSEAWGPGTLAAAPEGLEDAG [TEX19]  Condition met

Problem: Is protein stability index for LIRGSTFAKAKPEIPWTSLTRKGL [PHTF1] at or above 3?
Solution: Condition not met

Problem: Is protein stability index for NILVTSGGTVKLADFGLARIYSYQ [CDK4] at or above 3?
Solution: Condition not met

Problem: Is protein stability index for VHPTKHEVHFLHEESILERVQQHI [MLH1] at or above 3?
Solution: Condition met

Problem: Is protein stability index for GNLEVGEPQSEPVRVLDMVAKLES [FBXO34] at or above 3?
Solution: Condition met

Problem: Is protein stability index for PLAMNYLDRFLSLEPVKKSRLQLL [CCND1] at or above 3?
Solution: Condition not met

Problem: Is protein stability index for KDPRQWTETHVRDWVMWAVNEFSL [ETS1] at or above 3?
Solution: Condition not met

Problem: Is protein stability index for SSSSILRWLPEKRANPCLSSSNEH [ELOA2] at or above 3?
Solution: Condition met

Problem: Is protein stability index for CQEWYARRHCPLPQATFWGLVTPR [SOAT2] at or above 3?
Solution: Condition not met

###

procedureDetails: protein stability index of a GFP-peptide fusion (GPS, HEK-293T) (PSI 1-6); higher = more stable
conditionDescription: treatment: DMSO; c terminus: a fixed tail appended
Below, each entry is listed alongside its reported protein stability index.
Answer with a bare number; do not write a unit.

Some solved cases for reference:
> print(dat)
                        sequencecode              assaymetric  readoutnumber
1   SSSSILRWLPEKRANPCLSSSNEH [ELOA2]  protein stability index            3.4
2  FGAVNLSSPSNMLPVRPQTNALIG [CLINT1]  protein stability index           3.23
3   AERYKLERLAEAEKSQLIMQAEAE [FLOT1]  protein stability index           5.29
4    KRFQTLISKMEPLEIPVETITSEV [CRY1]  protein stability index           3.27
5   VRSGIVEYLSLVKGGQDVKKKVHL [PRIM1]  protein stability index           2.43

Problem: Please list protein stability index recorded for the sequence VPGLLLSYLMLVTVMMWPLAVYHR [RETREG3]
Solution: 3.33

Problem: Please list protein stability index recorded for the sequence VASRNLFPKDTLMNLHVYISEHEH [CLPTM1]
Solution: 2.35

###

procedureDetails: protein stability index of a GFP-peptide fusion (GPS, HEK-293T) (PSI 1-6); higher = more stable
conditionDescription: treatment: DMSO; c terminus: a fixed tail appended
assayMetric: protein stability index
Answer with a bare number; do not write a unit.

Some solved cases for reference:
> print(dat)
                          sequencecode  readoutnumber
1    VPLGPLGETYCEEHGEKIYFFCEN [TRIM15]           3.42
2    EVELAYQEAMFNMATLNRTAAGLM [SEPHS2]           2.42
3  MADQDPAGISPLQQMVASGTGAVV [SLC25A39]           4.52

Problem: Please list protein stability index recorded for the sequence SDAIRVVNAVLTQIDQIKRHSNVV [TRIP13]
Solution: 2.33

###

Below, each entry is listed alongside its reported protein stability index.
procedureDetails: protein stability index of a GFP-peptide fusion (GPS, HEK-293T) (PSI 1-6); higher = more stable
conditionDescription: treatment: DMSO; c terminus: native
Answer with a bare number; do not write a unit.

> print(dat)
                       sequencecode              assaymetric  readoutnumber
1  TCSICRRNFSRRSSLLRHQKLHL [ZNF75A]  protein stability index           3.65
2    SSVSPAVSKASSRRSSFSMEEES [TFE3]  protein stability index           5.44
3  DFLETPELTSTMLVPASWWILNN [NECAB1]  protein stability index           2.21

Let us examine a further case.
Problem: Please list protein stability index recorded for the sequence RETLIIAVLVSASIANLWLWMNQ [FATE1]
Solution: 2.54

###

procedureDetails: protein stability index of a GFP-peptide fusion (GPS, HEK-293T) (PSI 1-6); higher = more stable
conditionDescription: treatment: MLN4924 1 uM, 8 h; c terminus: a fixed tail appended
assayMetric: protein stability index
Answer with a bare number; do not write a unit.

> print(dat)
                       sequencecode  readoutnumber
1  ISRALLSDVVPEKERPLVIGHFNT [MFSD9]           2.99

Problem: Please list protein stability index recorded for the sequence LAMLALLSPLSLAQYDSWPHYPEY [LOXL2]
Solution: 3.46

Problem: Please list protein stability index recorded for the sequence ITTVSKAKGASLFTCDLQHTETGE [VPS39]
Solution: 3.99

Problem: Please list protein stability index recorded for the sequence QLTCFSITCSSTMSYSCCLPSLGC [KRT34]
Solution: 2.65

Problem: Please list protein stability index recorded for the sequence AGGGGFGGGSLSGGGGSRSISASS [KRT15]
Solution: 4

Problem: Please list protein stability index recorded for the sequence YLSNARPDNWFCYPCIPNHELVWA [ZMYND11]
Solution: 2.23

Problem: Please list protein stability index recorded for the sequence RGIDSSSVKLRGSSLFMDTEKSGK [WEE1]
Solution: 4.99
